# experiment_summary: total protein half-life in vivo (active degradation + dilution); higher = more stable protein
# conditions_used: wild type E. coli NCM3722; growth: P-lim chemostat; doubling time 6 h

>  <seq>
MFHRLWTLIRKELQSLLREPQTRAILILPVLIQVILFPFAATLEVTNATIAIYDEDNGEHSVELTQRFARASAFTHVLLLKSPQEIRPTIDTQKALLLVRFPADFSRKLDTFQTAPLQLILDGRNSNSAQIAANYLQQIVKNYQQELLEGKPKPNNSELVVRNWYNPNLDYKWFVVPSLIAMITTIGVMIVTSLSVAREREQGTLDQLLVSPLTTWQIFIGKAVPALIVATFQATIVLAIGIWAYQIPFAGSLALFYFTMVIYGLSLVGFGLLISSLCSTQQQAFIGVFVFMMPAILLSGYVSPVENMPVWLQNLTWINPIRHFTDITKQIYLKDASLDIVWNSLWPLLVITATTGSAAYAMFRRKVM [P0AFP9]

>  <total protein half-life in vivo, h>
6.38

$$$$

###

# experiment_summary: total protein half-life in vivo (active degradation + dilution); higher = more stable protein
# conditions_used: wild type E. coli NCM3722; growth: C-lim chemostat; doubling time 12 h
Measured total protein half-life in vivo by item
measured_parameter: total protein half-life in vivo (h)

>  <seq>
MEPLREIRNRLLNGWQLSKMHTFEVAARHQSFALAAEELSLSPSAVSHRINQLEEELGIQLFVRSHRKVELTHEGKRVYWALKSSLDTLNQEILDIKNQELSGTLTLYSRPSIAQCWLVPALGDFTRRYPSISLTVLTGNDNVNLQRAGIDLAIYFDDAPSAQLTHHFLMDEEILPVCSPEYAQRHALTNTVINLCHCTLLHDRQAWSNDSGTDEWHSWAQHYAVNLPTSSGIGFDRSDLAVIAAMNHIGVAMGRKRLVQKRLASGELVAPFGDMTVKCHQHYYITTLPGRQWPKIEAFIIWLREQVKTTS

>  <numeric_result>
11

$$$$
>  <seq>
MNKSQLIDKIAAGADISKAAAGRALDAIIASVTESLKEGDDVALVGFGTFAVKERAARTGRNPQTGKEITIAAAKVPSFRAGKALKDAVN [P0ACF4]

>  <numeric_result>
7.44

$$$$

###

# experiment_summary: total protein half-life in vivo (active degradation + dilution); higher = more stable protein
# conditions_used: E. coli NCM3722 delta-lon; growth: N-lim chemostat; doubling time 6 h
Measured total protein half-life in vivo by item
measured_parameter: total protein half-life in vivo (h)

>  <seq>
MERNVTLDFVRGVAILGILLLNISAFGLPKAAYLNPAWYGAITPRDAWTWAFLDLIGQVKFLTLFALLFGAGLQMLLPRGRRWIQSRLTLLVLLGFIHGLLFWDGDILLAYGLVGLICWRLVRDAPSVKSLFNTGVMLYLVGLGVLLLLGLISDSQTSRAWTPDASAILYEKYWKLHGGVEAISNRADGVGNSLLALGAQYGWQLAGMMLIGAALMRSGWLKGQFSLRHYRRTGFVLVAIGVTINLPAIALQWQLDWAYRWCAFLLQMPRELSAPFQAIGYASLFYGFWPQLSRFKLVLAIACVGRMALTNYLLQTLICTTLFYHLGLFMHFDRLELLAFVIPVWLANILFSVIWLRYFRQGPVEWLWRQLTLRAAGPAISKTSR

>  <numeric_result>
6.13

$$$$
>  <seq>
MIVAFCLYKYFPFGGLQRDFMRIASTVAARGHHVRVYTQSWEGDCPKAFELIQVPVKSHTNHGRNAEYYAWVQNHLKEHPADRVVGFNKMPGLDVYFAADVCYAEKVAQEKGFLYRLTSRYRHYAAFERATFEQGKSTKLMMLTDKQIADFQKHYQTEPERFQILPPGIYPDRKYSEQIPNSREIYRQKNGIKEQQNLLLQVGSDFGRKGVDRSIEALASLPESLRHNTLLFVVGQDKPRKFEALAEKLGVRSNVHFFSGRNDVSELMAAADLLLHPAYQEAAGIVLLEAITAGLPVLTTAVCGYAHYIADANCGTVIAEPFSQEQLNEVLRKALTQSPLRMAWAENARHYADTQDLYSLPEKAADIITGGLDG

>  <numeric_result>
5.95

$$$$

###

Measured total protein half-life in vivo by item
# experiment_summary: total protein half-life in vivo (active degradation + dilution); higher = more stable protein
# conditions_used: wild type E. coli NCM3722; growth: N-lim chemostat; doubling time 12 h

>  <seq>
MKQPGEELQETLTELDDRAVVDYLIKNPEFFIRNARAVEAIRVPHPVRGTVSLVEWHMARARNHIHVLEENMALLMEQAIANEGLFYRLLYLQRSLTAASSLDDMLMRFHRWARDLGLAGASLRLFPDRWRLGAPSNHTHLALSRQSFEPLRIQRLGQEQHYLGPLNGPELLVVLPEAKAVGSVAMSMLGSDADLGVVLFTSRDASHYQQGQGTQLLHEIALMLPELLERWIERV

>  <relation_symbol>
=

>  <total protein half-life in vivo / h>
1.56

$$$$
>  <seq>
MTQYSSLLRGLAAGSAFLFLFAPTAFAAEQTVEAPSVDARAWILMDYASGKVLAEGNADEKLDPASLTKIMTSYVVGQALKADKIKLTDMVTVGKDAWATGNPALRGSSVMFLKPGDQVSVADLNKGVIIQSGNDACIALADYVAGSQESFIGLMNGYAKKLGLTNTTFQTVHGLDAPGQFSTARDMALLGKALIHDVPEEYAIHKEKEFTFNKIRQPNRNRLLWSSNLNVDGMKTGTTAGAGYNLVASATQGDMRLISVVLGAKTDRIRFNESEKLLTWGFRFFETVTPIKPDATFVTQRVWFGDKSEVNLGAGEAGSVTIPRGQLKNLKASYTLTEPQLTAPLKKGQVVGTIDFQLNGKSIEQRPLIVMENVEEGGFFGRVWDFVMMKFHQWFGSWFS

>  <relation_symbol>
=

>  <total protein half-life in vivo / h>
14.9

$$$$
>  <seq>
MKKKRPVLQDVADRVGVTKMTVSRFLRNPEQVSVALRGKIAAALDELGYIPNRAPDILSNATSRAIGVLLPSLTNQVFAEVLRGIESVTDAHGYQTMLAHYGYKPEMEQERLESMLSWNIDGLILTERTHTPRTLKMIEVAGIPVVELMDSKSPCLDIAVGFDNFEAARQMTTAIIARGHRHIAYLGARLDERTIIKQKGYEQAMLDAGLVPYSVMVEQSSSYSSGIELIRQARREYPQLDGVFCTNDDLAVGAAFECQRLGLKVPDDMAIAGFHGHDIGQVMEPRLASVLTPRERMGSIGAERLLARIRGESVTPKMLDLGFTLSPGGSI [P0ACP5]

>  <relation_symbol>
=

>  <total protein half-life in vivo / h>
14.4

$$$$
>  <seq>
MIDYEVLRFIWWLLVGVLLIGFAVTDGFDMGVGMLTRFLGRNDTERRIMINSIAPHWDGNQVWLITAGGALFAAWPMVYAAAFSGFYVAMILVLASLFFRPVGFDYRSKIEETRWRNMWDWGIFIGSFVPPLVIGVAFGNLLQGVPFNVDEYLRLYYTGNFFQLLNPFGLLAGVVSVGMIITQGATYLQMRTVGELHLRTRATAQVAALVTLVCFALAGVWVMYGIDGYVVKSTMDHYAASNPLNKEVVREAGAWLVNFNNTPILWAIPALGVVLPLLTILTARMDKAAWAFVFSSLTLACIILTAGIAMFPFVMPSSTMMNASLTMWDATSSQLTLNVMTWVAVVLVPIILLYTAWCYWKMFGRITKEDIERNTHSLY [P0ABK2]

>  <relation_symbol>
=

>  <total protein half-life in vivo / h>
12.2

$$$$
>  <seq>
MKKLTVAALAVTTLLSGSAFAHEAGEFFMRAGSATVRPTEGAGGTLGSLGGFSVTNNTQLGLTFTYMATDNIGVELLAATPFRHKIGTRATGDIATVHHLPPTLMAQWYFGDASSKFRPYVGAGINYTTFFDNGFNDHGKEAGLSDLSLKDSWGAAGQVGVDYLINRDWLVNMSVWYMDIDTTANYKLGGAQQHDSVRLDPWVFMFSAGYRF [P0A915]

>  <relation_symbol>
>

>  <total protein half-life in vivo / h>
16

$$$$

###

# experiment_summary: total protein half-life in vivo (active degradation + dilution); higher = more stable protein
# conditions_used: wild type E. coli NCM3722; growth: C-lim chemostat; doubling time 3 h
Please mark YES if the recorded total protein half-life in vivo is equal to or greater than 3 h, and NO if it falls below.

>  <seq>
MHVTLVEINVHEDKVDEFIEVFRQNHLGSVQEEGNLRFDVLQDPEVNSRFYIYEAYKDEDAVAFHKTTPHYKTCVAKLESLMTGPRKKRLFNGLMP

>  <class_assignment>
NO

$$$$
>  <seq>
MSQTSTLKGQCIAEFLGTGLLIFFGVGCVAALKVAGASFGQWEISVIWGLGVAMAIYLTAGVSGAHLNPAVTIALWLFACFDKRKVIPFIVSQVAGAFCAAALVYGLYYNLFFDFEQTHHIVRGSVESVDLAGTFSTYPNPHINFVQAFAVEMVITAILMGLILALTDDGNGVPRGPLAPLLIGLLIAVIGASMGPLTGFAMNPARDFGPKVFAWLAGWGNVAFTGGRDIPYFLVPLFGPIVGAIVGAFAYRKLIGRHLPCDICVVEEKETTTPSEQKASL [P0AER0]

>  <class_assignment>
NO

$$$$
>  <seq>
MVKSQPILRYILRGIPAIAVAVLLSACSANNTAKNMHPETRAVGSETSSLQASQDEFENLVRNVDVKSRIMDQYADWKGVRYRLGGSTKKGIDCSGFVQRTFREQFGLELPRSTYEQQEMGKSVSRSNLRTGDLVLFRAGSTGRHVGIYIGNNQFVHASTSSGVIISSMNEPYWKKRYNEARRVLSRS [P0AFV4]

>  <class_assignment>
NO

$$$$
>  <seq>
MKYDTSELCDIYQEDVNVVEPLFSNFGGRASFGGQIITVKCFEDNGLLYDLLEQNGRGRVLVVDGGGSVRRALVDAELARLAVQNEWEGLVIYGAVRQVDDLEELDIGIQAMAAIPVGAAGEGIGESDVRVNFGGVTFFSGDHLYADNTGIILSEDPLDIE [P0A8R0]

>  <class_assignment>
YES

$$$$
>  <seq>
MKKTAIAIAVALAGFATVAQAAPKDNTWYTGAKLGWSQYHDTGFINNNGPTHENQLGAGAFGGYQVNPYVGFEMGYDWLGRMPYKGSVENGAYKAQGVQLTAKLGYPITDDLDIYTRLGGMVWRADTKSNVYGKNHDTGVSPVFAGGVEYAITPEIATRLEYQWTNNIGDAHTIGTRPDNGMLSLGVSYRFGQGEAAPVVAPAPAPAPEVQTKHFTLKSDVLFNFNKATLKPEGQAALDQLYSQLSNLDPKDGSVVVLGYTDRIGSDAYNQGLSERRAQSVVDYLISKGIPADKISARGMGESNPVTGNTCDNVKQRAALIDCLAPDRRVEIEVKGIKDVVTQPQA [P0A910]

>  <class_assignment>
YES

$$$$
>  <seq>
MSKNYHIAVLPGDGIGPEVMTQALKVLDAVRNRFAMRITTSHYDVGGAAIDNHGQPLPPATVEGCEQADAVLFGSVGGPKWEHLPPDQQPERGALLPLRKHFKLFSNLRPAKLYQGLEAFCPLRADIAANGFDILCVRELTGGIYFGQPKGREGSGQYEKAFDTEVYHRFEIERIARIAFESARKRRHKVTSIDKANVLQSSILWREIVNEIATEYPDVELAHMYIDNATMQLIKDPSQFDVLLCSNLFGDILSDECAMITGSMGMLPSASLNEQGFGLYEPAGGSAPDIAGKNIANPIAQILSLALLLRYSLDADDAACAIERAINRALEEGIRTGDLARGAAAVSTDEMGDIIARYVAEGV

>  <class_assignment>
YES

$$$$
>  <seq>
MTKLKLLALGVLIATSAGVAHAEGKFSLGAGVGVVEHPYKDYDTDVYPVPVINYEGDNFWFRGLGGGYYLWNDATDKLSITAYWSPLYFKAKDSGDHQMRHLDDRKSTMMAGLSYAHFTQYGYLRTTLAGDTLDNSNGIVWDMAWLYRYTNGGLTVTPGIGVQWNSENQNEYYYGVSRKESARSGLRGYNPNDSWSPYLELSASYNFLGDWSVYGTARYTRLSDEVTDSPMVDKSWTGLISTGITYKF [P0A908]

>  <class_assignment>
NO

$$$$
>  <seq>
MNIENLKTKAEADISEYITKKIIELKKKTGKEVTSIQFTAREKMTGLESYDVKINLI

>  <class_assignment>
YES

$$$$
>  <seq>
MPRANEIKKGMVLNYNGKLLLVKDIDIQSPTARGAATLYKMRFSDVRTGLKVEERFKGDDIVDTVTLTRRYVDFSYVDGNEYVFMDKEDYTPYTFTKDQIEEELLFMPEGGMPDMQVLTWDGQLLALELPQTVDLEIVETAPGIKGASASARNKPATLSTGLVIQVPEYLSPGEKIRIHIEERRYMGRAD [P0A6N8]

>  <class_assignment>
YES

$$$$
>  <seq>
MSDDVALPLEFTDAAANKVKSLIADEDNPNLKLRVYITGGGCSGFQYGFTFDDQVNEGDMTIEKQGVGLVVDPMSLQYLVGGSVDYTEGLEGSRFIVTNPNAKSTCGCGSSFSI [P0ACC3]

>  <class_assignment>
NO

$$$$
>  <seq>
MARINRISITLCALLFTTLPLTPMAHASKQARESSATTHITKKADKKKSTATTKKTQKTAKKAASKSTTKSKTASSVKKSSITASKNAKTRSKHAVNKTASASFTEKCTKRKGYKSHCVKVKNAASGTLADAHKAKVQKATKVAMNKLMQQIGKPYRWGGSSPRTGFDCSGLVYYAYKDLVKIRIPRTANEMYHLRDAAPIERSELKNGDLVFFRTQGRGTADHVGVYVGNGKFIQSPRTGQEIQITSLSEDYWQRHYVGARRVMTPKTLR

>  <class_assignment>
NO

$$$$
>  <seq>
MTKTLLDGPGRVLESVYPRFLVDLAQGDDARLPQAHQQQFRERLMQELLSRVQLQTWTNGGMLNAPLSLRLTLVEKLASMLDPGHLALTQIAQHLALLQKMDHRQHSAFPELPQQIAALYEWFSARCRWKEKALTQRGLLVQAGDQSEQIFTRWRAGAYNAWSLPGRCFIVLEELRWGAFGDACRLGSPQAVALLLGDLLEKATQHLAESINAAPTTRHYYHQWFASSTVPTGGEHADFLSWLGKWTTADKQPVCWSVTQRWQTVALGMPRLCSAQRLAGAMLEEIFSVNLA

>  <class_assignment>
NO

$$$$
>  <seq>
MFKKGLLALALVFSLPVFAAEHWIDVRVPEQYQQEHVQGAINIPLKEVKERIATAVPDKNDTVKVYCNAGRQSGQAKEILSEMGYTHVENAGGLKDIAMPKVKG

>  <class_assignment>
NO

$$$$
